# system-tested: D(1A) dopamine receptor (Rattus norvegicus, UniProt P18901)
# Sequence (P18901 whole entry): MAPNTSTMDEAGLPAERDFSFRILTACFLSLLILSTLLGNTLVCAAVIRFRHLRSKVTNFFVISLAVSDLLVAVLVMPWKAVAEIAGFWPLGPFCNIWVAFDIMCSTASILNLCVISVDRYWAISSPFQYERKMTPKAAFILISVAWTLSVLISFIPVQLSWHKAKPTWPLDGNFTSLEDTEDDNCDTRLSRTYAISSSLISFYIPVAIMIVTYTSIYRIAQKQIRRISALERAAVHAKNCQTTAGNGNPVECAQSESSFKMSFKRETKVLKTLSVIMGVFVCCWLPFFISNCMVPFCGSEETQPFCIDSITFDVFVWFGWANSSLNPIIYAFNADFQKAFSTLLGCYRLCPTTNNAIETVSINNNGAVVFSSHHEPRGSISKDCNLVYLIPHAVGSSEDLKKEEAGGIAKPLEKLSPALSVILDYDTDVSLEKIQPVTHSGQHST
# assay-method-text: Displacement of [3H]SCH23390 from dopamine D1 receptor in rat corpus striatum
result-type: Ki (µM)
Numbers only here, please. The scale is µM.

compound | Ki (µM)
CCOc1cccc2c1-c1cc(O)cc3c1[C@@H](C2)N(C)CC3 | 3.68
CCCOc1cccc2c1-c1cc(O)cc3c1[C@@H](C2)N(C)CC3 | 1.81

Exercise: Param item = COc1cc2c3c(c1)-c1ccccc1C[C@H]3N(C)CC2 ; retrieve measured Ki.
Key: 1.3

----------
// reported Ki for each item listed
# system-tested: D(2) dopamine receptor (Rattus norvegicus, UniProt P61169)
# Sequence (P61169 whole entry): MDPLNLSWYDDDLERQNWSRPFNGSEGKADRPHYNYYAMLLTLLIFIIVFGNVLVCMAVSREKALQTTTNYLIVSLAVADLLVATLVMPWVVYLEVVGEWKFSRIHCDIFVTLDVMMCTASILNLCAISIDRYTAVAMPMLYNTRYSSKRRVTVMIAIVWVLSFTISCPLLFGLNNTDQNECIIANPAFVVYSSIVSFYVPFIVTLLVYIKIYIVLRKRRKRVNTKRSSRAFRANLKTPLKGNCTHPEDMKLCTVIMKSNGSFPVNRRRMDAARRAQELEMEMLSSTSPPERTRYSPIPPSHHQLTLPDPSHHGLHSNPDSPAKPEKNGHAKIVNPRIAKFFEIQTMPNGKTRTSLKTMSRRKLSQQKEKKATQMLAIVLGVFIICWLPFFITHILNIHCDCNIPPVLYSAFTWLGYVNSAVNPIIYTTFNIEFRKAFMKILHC
# assay-method-text: Displacement of [3H]neomonapride from dopamine D2 receptor in rat corpus striatum
Numbers only here, please. The scale is nM.

compound | unit-abbreviation | Ki
CCOc1cccc2c1-c1cc(O)cc3c1[C@@H](C2)N(C)CC3 | nM | 641

Exercise: Param item = CCCN1CCc2cc(OCCO)cc3c2[C@H]1Cc1cccc(O)c1-3 ; retrieve measured Ki.
Key: 97

Exercise: Param item = CN1CCc2cc(O)cc3c2[C@H]1Cc1cccc(OCCO)c1-3 ; retrieve measured Ki.
Key: 3340

Exercise: Param item = COc1cc2c3c(c1)-c1ccccc1C[C@H]3N(C)CC2 ; retrieve measured Ki.
Key: 731

----------
// reported Ratio for each item listed
# Species: Rattus norvegicus
# assay-method-text: Selectivity ratio of […] in rat corpus striatum
# Assay type: tissue-based
Form field (numeric): enter value without unit.

The following compounds have reported results that may help.
compound | measured-result
CCOc1cccc2c1-c1cc(O)cc3c1[C@@H](C2)N(C)CC3 | 5.7
CN1CCc2cc(O)cc3c2[C@H]1Cc1cccc(OCCO)c1-3 | 3

Exercise: Param item = COc1cc2c3c(c1)-c1ccccc1C[C@H]3N(C)CC2 ; retrieve measured Ratio.
Key: 1.8

----------
# system-tested: UniProtKB P18901
# assay-method-text: Displacement of [3H]SCH23390 from dopamine D1 receptor in rat corpus striatum
pKi: −log10 of the molar value.
// reported pKi for each item listed

The following compounds have reported results that may help.
compound | result-type | measured-result
CCCN1CCc2cc(OCCO)cc3c2[C@H]1Cc1cccc(O)c1-3 | pKi | < 5.00
CN1CCc2cc(O)cc3c2[C@H]1Cc1cccc(OCCO)c1-3 | pKi | < 5.00

Exercise: Param item = CCCN1CCc2cc(OC)cc3c2[C@H]1Cc1ccccc1-3 ; retrieve measured pKi.
Key: < 5.00

Cited source: ChEMBL document CHEMBL1155098
